TARGET DESC: 25-hydroxyvitamin D3-hydroxylases which attack the C20-27-side chain of vitamin D3 (Homo sapiens)
Construct: Confluent human keratinocytes in 1 ml of KGM and in 6-well plates; endogenous in cells; host or cells: normal human epidermal keratinocytes pretreated overnight (16-17 h) with 10 nM calcitriol
Sequence (Q07973 36-514): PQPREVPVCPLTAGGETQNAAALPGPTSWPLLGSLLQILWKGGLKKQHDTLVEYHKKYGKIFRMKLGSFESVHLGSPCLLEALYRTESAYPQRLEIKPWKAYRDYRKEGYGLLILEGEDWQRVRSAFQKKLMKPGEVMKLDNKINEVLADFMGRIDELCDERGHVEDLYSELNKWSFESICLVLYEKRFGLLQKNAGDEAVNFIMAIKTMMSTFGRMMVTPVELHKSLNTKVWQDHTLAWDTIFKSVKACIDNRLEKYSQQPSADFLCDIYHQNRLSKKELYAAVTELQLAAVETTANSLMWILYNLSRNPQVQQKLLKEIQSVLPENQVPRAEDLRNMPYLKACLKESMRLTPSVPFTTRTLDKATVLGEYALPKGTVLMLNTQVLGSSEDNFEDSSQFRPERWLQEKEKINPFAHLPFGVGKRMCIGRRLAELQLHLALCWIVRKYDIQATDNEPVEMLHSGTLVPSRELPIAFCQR
MEASUREMENT NOTES: Inhibition of side chain metabolism / vitamin D3-hydroxylases attacking the C20-27 side chain in calcitriol-pretreated keratinocytes (test a))
Format: cell-based
CONDITION CONTEXT: test a), human keratinocytes, pretreated with 10 nM calcitriol; read-out: IC50 for stabilization of 3-epi 1,25(OH)2 D3 levels
MEASUREMENT KIND: pIC50
Interpret pIC50 as the negative base-10 log of the concentration measured in mol/L.

# COMPOUND, ASSAY RESULT
data = [
    ("O=C(NC[C@@H](c1ccccc1)n1ccnc1)c1ccc(-c2ccc(Cl)cc2)cc1 [Example 9]", 7.92),
]

Proceeding to the next compound to report its pIC50.
Asked: # input compound: O=C(NC[C@H](c1ccccc1)n1ccnc1)c1ccc(-c2ccc(Cl)cc2)cc1 [Example 8] ; wanted: its pIC50
Given back: 7.40

###

Below, each of the compounds is paired with its reported IC50 value.
TARGET DESC: 25(OH)D3-1-hydroxylase (Homo sapiens, UniProt O15528)
Construct: Confluent cultures of human keratinocytes in KGM; endogenous in cells
Sequence (O15528 whole entry): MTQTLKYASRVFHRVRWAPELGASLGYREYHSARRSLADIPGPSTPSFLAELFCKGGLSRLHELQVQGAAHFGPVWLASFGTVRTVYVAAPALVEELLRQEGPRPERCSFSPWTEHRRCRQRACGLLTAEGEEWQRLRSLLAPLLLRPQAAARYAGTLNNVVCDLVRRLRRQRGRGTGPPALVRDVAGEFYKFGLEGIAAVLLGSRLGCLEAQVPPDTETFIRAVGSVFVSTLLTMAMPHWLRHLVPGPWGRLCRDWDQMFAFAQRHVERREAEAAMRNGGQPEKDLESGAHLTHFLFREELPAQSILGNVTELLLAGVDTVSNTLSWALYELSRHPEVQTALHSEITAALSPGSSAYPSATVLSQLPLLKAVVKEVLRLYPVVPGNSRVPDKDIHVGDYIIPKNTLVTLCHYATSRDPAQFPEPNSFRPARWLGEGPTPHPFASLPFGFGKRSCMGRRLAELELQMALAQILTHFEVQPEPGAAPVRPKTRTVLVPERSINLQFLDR
MEASUREMENT NOTES: Inhibition of vitamin D3-1-hydroxylase (oxidation of 3H-25(OH)D3, test a))
CONDITION CONTEXT: test a), human keratinocytes, 1 hour, without calcitriol pretreatment
Provide a numeric answer, followed by its unit.

# SMILES STRING, IC50
data = [
    ("O=C(NC[C@@H](c1ccccc1)n1ccnc1)c1ccc(-c2ccc(Cl)cc2)cc1", "620 nM"),
]

Now consider the entry below.
Asked: So what IC50 did `O=C(NC[C@H](c1ccccc1)n1ccnc1)c1ccc(-c2ccc(Cl)cc2)cc1` get with 25(OH)D3-1-hydroxylase (Homo sapiens, UniProt O15528)?
Given back: 530 nM

###

TARGET DESC: 25-hydroxyvitamin D3-hydroxylases which attack the C20-27-side chain of vitamin D3 (Homo sapiens)
Construct: Confluent human keratinocytes in 1 ml of KGM and in 6-well plates; endogenous in cells; host or cells: normal human epidermal keratinocytes pretreated overnight (16-17 h) with 10 nM calcitriol
MEASUREMENT NOTES: Inhibition of side chain metabolism / vitamin D3-hydroxylases attacking the C20-27 side chain in calcitriol-pretreated keratinocytes (test a))
Assay type: cell-based
CONDITION CONTEXT: test a), human keratinocytes, pretreated with 10 nM calcitriol; read-out: IC50 for stabilization of levels of the sum of 1,25(OH)2 D3, 1,24,25(OH)3D3 and 1,24oxo,25(OH)2 D3
MEASUREMENT KIND: IC50 (nM)
Field format: number, assumed nM, no unit text.

Asked: Recorded IC50 of O=C(NC[C@H](c1ccccc1)n1ccnc1)c1ccc(-c2ccc(Cl)cc2)cc1 [Example 8] , please.
Given back: 45

Asked: Consider the molecule O=C(NC[C@@H](c1ccccc1)n1ccnc1)c1ccc(-c2ccc(Cl)cc2)cc1 [Example 9] and give its measured IC50.
Given back: 19
